- MEASURED TARGET: Serine/threonine-protein kinase TBK1 (Homo sapiens) (UniProt Q9UHD2)
- Sequence (whole entry): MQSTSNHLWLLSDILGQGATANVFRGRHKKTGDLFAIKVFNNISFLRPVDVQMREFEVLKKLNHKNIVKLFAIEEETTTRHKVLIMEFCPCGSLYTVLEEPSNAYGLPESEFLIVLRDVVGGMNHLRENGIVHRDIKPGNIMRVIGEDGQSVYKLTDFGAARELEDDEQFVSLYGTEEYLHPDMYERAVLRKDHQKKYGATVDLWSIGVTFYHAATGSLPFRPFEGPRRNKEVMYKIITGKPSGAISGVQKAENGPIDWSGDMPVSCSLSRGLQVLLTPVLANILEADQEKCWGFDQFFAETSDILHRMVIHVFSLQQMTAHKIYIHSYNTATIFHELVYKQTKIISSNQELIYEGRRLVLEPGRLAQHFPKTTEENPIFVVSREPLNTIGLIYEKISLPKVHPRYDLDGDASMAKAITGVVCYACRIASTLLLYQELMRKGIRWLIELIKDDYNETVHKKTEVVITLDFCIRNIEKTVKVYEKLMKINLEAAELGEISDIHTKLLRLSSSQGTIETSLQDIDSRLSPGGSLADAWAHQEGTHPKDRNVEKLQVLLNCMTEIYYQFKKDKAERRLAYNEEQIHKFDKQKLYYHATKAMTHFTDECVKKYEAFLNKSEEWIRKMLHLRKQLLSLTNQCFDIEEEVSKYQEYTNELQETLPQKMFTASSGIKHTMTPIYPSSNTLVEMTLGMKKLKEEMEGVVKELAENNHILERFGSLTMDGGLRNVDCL
- ASSAY REMARKS: Inhibition of TBK1 (unknown origin) incubated at 100 nM for 1 hr in presence of ATP by FRET based Z'-Lyte assay relative to control
# Lookup of reported inhibition keyed by entry

Q) Endpoint output: inhibition of "O=C(NCCCN1C(=O)Cc2cnc(Nc3cccc(CN4CCOCC4)c3)nc21)C1CCC1" . Value?
A) < 0%

Q) Endpoint output: inhibition of "Cc1cn(CCCNC(=O)C2CCC2)c2nc(Nc3cccc(CN4CCOCC4)c3)ncc12" . Value?
A) 22.8%

Q) Endpoint output: inhibition of "O=C(Nc1ccc(-n2ccc3cnc(Nc4cccc(CN5CCOCC5)c4)nc32)nc1)C1CCC1" . Value?
A) < 0%

Q) Endpoint output: inhibition of O=C(C1CCC1)N1CCC(n2ccc3cnc(Nc4cccc(CN5CCOCC5)c4)nc32)C1 (stereo not given) . Value?
A) < 0%

Q) Endpoint output: inhibition of "O=C(NCCCn1cc(C2CC2)c2cnc(Nc3cccc(CN4CCOCC4)c3)nc21)C1CCC1" . Value?
A) < 0%

###

- MEASURED TARGET: Serine/threonine-protein kinase TBK1 (Homo sapiens)
- Sequence (whole entry): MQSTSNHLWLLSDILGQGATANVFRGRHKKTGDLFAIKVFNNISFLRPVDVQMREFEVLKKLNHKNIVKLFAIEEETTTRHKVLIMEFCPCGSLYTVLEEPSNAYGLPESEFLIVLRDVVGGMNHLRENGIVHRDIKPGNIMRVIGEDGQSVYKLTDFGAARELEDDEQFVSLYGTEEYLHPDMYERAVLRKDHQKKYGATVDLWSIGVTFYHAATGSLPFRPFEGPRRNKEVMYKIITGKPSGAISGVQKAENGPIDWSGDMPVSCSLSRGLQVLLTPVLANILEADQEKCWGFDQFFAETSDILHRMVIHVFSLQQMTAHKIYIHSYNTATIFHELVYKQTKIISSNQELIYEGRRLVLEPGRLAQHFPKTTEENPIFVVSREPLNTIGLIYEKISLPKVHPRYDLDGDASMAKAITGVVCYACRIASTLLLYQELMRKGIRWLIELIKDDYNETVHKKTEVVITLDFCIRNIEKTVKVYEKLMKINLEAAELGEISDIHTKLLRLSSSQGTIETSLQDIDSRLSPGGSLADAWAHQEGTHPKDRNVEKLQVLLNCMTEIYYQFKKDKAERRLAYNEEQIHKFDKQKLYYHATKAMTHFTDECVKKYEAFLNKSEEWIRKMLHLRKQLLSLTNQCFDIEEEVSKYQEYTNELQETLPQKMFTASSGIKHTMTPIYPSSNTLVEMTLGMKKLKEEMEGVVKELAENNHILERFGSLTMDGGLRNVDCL
- ASSAY REMARKS: Inhibition of TBK1 (unknown origin) incubated at 100 nM for 1 hr in presence of ATP by FRET based Z'-Lyte assay relative to control
MEASURE: inhibition (%)
Your answer is read as %, so omit the unit and give the number.

{"MOLECULAR STRING": "CN1CCN(Cc2cccc(Nc3ncc4ccn(CCCNC(=O)C5CCC5)c4n3)c2)CC1", "QUANTITY UNIT": "%", "ENDPOINT VALUE": 44.5}
{"MOLECULAR STRING": "COCCN(C)Cc1cccc(Nc2ncc3ccn(CCCNC(=O)C4CCC4)c3n2)c1", "QUANTITY UNIT": "%", "ENDPOINT VALUE": 68.9}
{"MOLECULAR STRING": "O=C(NCCCn1cc(Br)c2cnc(Nc3cccc(CN4CCOCC4)c3)nc21)C1CCC1", "QUANTITY UNIT": "%", "ENDPOINT VALUE": 37.1}

Q) Endpoint output: inhibition of "O=C(NCCCn1cc(Cl)c2cnc(Nc3cccc(CN4CCOCC4)c3)nc21)C1CCC1" . Value?
A) 55.8

Q) Endpoint output: inhibition of "CC(=O)N1CCN(Cc2cccc(Nc3ncc4ccn(CCCNC(=O)C5CCC5)c4n3)c2)CC1" . Value?
A) 66.2

###

- ASSAY REMARKS: Antiproliferative activity against LLC cells measured after 72 hrs by SRB staining method
- Type: functional, cell-based
- MEASUREMENT SETUP: Mus musculus, Lewis lung carcinoma
MEASURE: IC50 (µM)
Your answer is read as µM, so omit the unit and give the number.

Q) Endpoint output: IC50 of "CC(=O)N1CCN(Cc2cccc(Nc3ncc4ccn(CCCNC(=O)C5CCC5)c4n3)c2)CC1" . Value?
A) 9.4

###

# Lookup of reported inhibition keyed by entry
- MEASURED TARGET: Serine/threonine-protein kinase TBK1 (Homo sapiens) (UniProt Q9UHD2)
- Sequence (whole entry): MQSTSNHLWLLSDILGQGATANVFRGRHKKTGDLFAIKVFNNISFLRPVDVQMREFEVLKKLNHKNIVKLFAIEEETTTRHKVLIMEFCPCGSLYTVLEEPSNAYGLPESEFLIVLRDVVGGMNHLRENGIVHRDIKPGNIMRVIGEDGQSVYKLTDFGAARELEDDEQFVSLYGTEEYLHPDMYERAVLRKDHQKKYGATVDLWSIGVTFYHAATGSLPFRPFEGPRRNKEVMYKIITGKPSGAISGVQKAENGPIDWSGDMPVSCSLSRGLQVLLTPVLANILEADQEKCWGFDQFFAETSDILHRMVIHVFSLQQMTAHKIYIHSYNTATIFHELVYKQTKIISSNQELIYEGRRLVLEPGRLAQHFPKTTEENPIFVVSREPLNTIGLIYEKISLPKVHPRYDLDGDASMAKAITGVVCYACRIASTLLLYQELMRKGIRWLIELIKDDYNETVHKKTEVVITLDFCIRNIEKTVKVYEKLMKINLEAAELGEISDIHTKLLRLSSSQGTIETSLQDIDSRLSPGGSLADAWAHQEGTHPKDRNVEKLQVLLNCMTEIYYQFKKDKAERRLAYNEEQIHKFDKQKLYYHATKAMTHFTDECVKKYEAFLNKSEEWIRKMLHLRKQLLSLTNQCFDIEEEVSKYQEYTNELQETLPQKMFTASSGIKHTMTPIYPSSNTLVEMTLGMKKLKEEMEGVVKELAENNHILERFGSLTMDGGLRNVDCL
- ASSAY REMARKS: Inhibition of TBK1 (unknown origin) incubated at 1000 nM for 1 hr in presence of ATP by FRET based Z'-Lyte assay relative to control
Your answer is read as %, so omit the unit and give the number.

Example molecules with recorded inhibition:
{"MOLECULAR STRING": "COCCN(C)Cc1cccc(Nc2ncc3ccn(CCCNC(=O)C4CCC4)c3n2)c1", "QUANTITY UNIT": "%", "inhibition": 91.8}
{"MOLECULAR STRING": "N#Cc1cn(CCCNC(=O)C2CCC2)c2nc(Nc3cccc(CN4CCOCC4)c3)ncc12", "QUANTITY UNIT": "%", "inhibition": 26.4}
{"MOLECULAR STRING": "O=C(NCCCn1cnc2cnc(Nc3cccc(CN4CCOCC4)c3)nc21)C1CCC1", "QUANTITY UNIT": "%", "inhibition": 25.5}

Q) Request - read-out inhibition | tested on Serine/threonine-protein kinase TBK1 (Homo sapiens) (UniProt Q9UHD2) | molecule "O=C(NCCCn1cc(Cl)c2cnc(Nc3cccc(CN4CCOCC4)c3)nc21)C1CCC1"
A) 91

Q) Request - read-out inhibition | tested on Serine/threonine-protein kinase TBK1 (Homo sapiens) (UniProt Q9UHD2) | molecule "O=C(NCCCn1cc(Br)c2cnc(Nc3cccc(CN4CCOCC4)c3)nc21)C1CCC1"
A) 84.4

Q) Request - read-out inhibition | tested on Serine/threonine-protein kinase TBK1 (Homo sapiens) (UniProt Q9UHD2) | molecule "O=C(NCCCn1ccc2cnc(Nc3cccc(CN4CCOCC4)c3)nc21)C1CCC1"
A) 92.1

Q) Request - read-out inhibition | tested on Serine/threonine-protein kinase TBK1 (Homo sapiens) (UniProt Q9UHD2) | molecule "CN1CCN(Cc2cccc(Nc3ncc4ccn(CCCNC(=O)C5CCC5)c4n3)c2)CC1"
A) 72.6

Q) Request - read-out inhibition | tested on Serine/threonine-protein kinase TBK1 (Homo sapiens) (UniProt Q9UHD2) | molecule "O=C(NCCCn1ccc2cnc(Nc3cccc(CN4CCN(C5COC5)CC4)c3)nc21)C1CCC1"
A) 92.3

Data origin, for the record: ChEMBL document CHEMBL5352492
